- MEASUREMENT TARGET: T1, human CD39 (full length, on cells) (human, UniProt P49961 1-510)
- T1 sequence: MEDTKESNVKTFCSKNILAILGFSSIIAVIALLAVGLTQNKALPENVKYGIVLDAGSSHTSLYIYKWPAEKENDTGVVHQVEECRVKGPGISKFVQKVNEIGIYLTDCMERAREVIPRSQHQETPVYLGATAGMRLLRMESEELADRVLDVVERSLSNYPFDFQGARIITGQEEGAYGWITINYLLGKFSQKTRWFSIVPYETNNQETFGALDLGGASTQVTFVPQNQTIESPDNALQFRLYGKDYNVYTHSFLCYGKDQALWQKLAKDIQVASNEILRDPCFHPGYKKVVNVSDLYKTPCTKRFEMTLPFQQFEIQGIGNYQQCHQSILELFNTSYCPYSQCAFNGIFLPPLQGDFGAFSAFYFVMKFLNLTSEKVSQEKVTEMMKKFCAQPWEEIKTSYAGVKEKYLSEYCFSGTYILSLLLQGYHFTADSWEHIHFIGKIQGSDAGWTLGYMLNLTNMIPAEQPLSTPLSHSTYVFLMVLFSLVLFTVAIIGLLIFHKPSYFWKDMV
- METHOD SUMMARY: cell-based or functional assay
We begin with a simple list: items and their reported ATPase inhibition IC50 on SK-MEL-28 cells.
Kindly answer with a numeric value in nM, unit omitted.

Some binders with known ATPase inhibition IC50 on SK-MEL-28 cells results, for comparison:
BINDER	UNITS	VALUE
hu23.H5L6 (antibody, V domains shown, humanized c23) VH: QVQLVQSGAEVKKPGASVKVSCKASGYNLKDTFLHWVRQAPGQGLEWMGRIDPANGNIKYDPKFQGRVTITADTSANTAYMELISLRSEDTAVYYCANSPYYYGSGYRIFDVWGQGTTVTVSS VL: QIVLTQSPATLSASPGERATLSCSAFSSVNYMHWYQQKPGQAPKLLIYTTSNLASGVPTRFSGSGSGTSYTLTISSMEPEDFAVYYCQQRSTYPFTFGQGTKLEIK	nM	0.13
hu23.H1L2 (antibody, V domains shown, humanized c23) VH: QVQLVQSGAEVKKPGASVKVSCKASGYNLKDTFLHWVRQAPGQRLEWMGRIDPANGNIKYDPKFQGRVTITRDTSASTAYMELSSLRSEDTAVYYCARSPYYYGSGYRIFDVWGQGTTVTVSS VL: EIVLTQSPATLSLSPGERATLSCSAFSSVNYMHWYQQKPGQAPRLLIYTTSNLASGIPARFSGSGSGTDYTLTISSLEPEDFAVYYCQQRSTYPFTFGQGTKLEIK	nM	0.964
hu23.H7L1 (antibody, V domains shown, humanized c23) VH: EVQLVQSGAEVKKPGASVKLSCKASGYNLKDTFLHWVKQAPGQGLEWIGRIDPANGNIKYDPKFQGKATLTADTSANTAYLELISLRSEDTAVYYCANSPYYYGSGYRIFDVWGQGTTVTVSS VL: EIVLTQSPATLSLSPGERATLSCSAFSSVNYMHWYQQKPGQAPRLLIYTTSNLASGIPARFSGSGSGTDFTLTISSLEPEDFAVYYCQQRSTYPFTFGQGTKLEIK	nM	0.147
hu23.H7L5 (antibody, V domains shown, humanized c23) VH: EVQLVQSGAEVKKPGASVKLSCKASGYNLKDTFLHWVKQAPGQGLEWIGRIDPANGNIKYDPKFQGKATLTADTSANTAYLELISLRSEDTAVYYCANSPYYYGSGYRIFDVWGQGTTVTVSS VL: QIVLTQSPATLSLSPGERATLSCSAFSSVNYMHWYQQKPGQAPRLLIYTTSNLASGIPTRFSGSGSGTSYTLTISSLEPEDFAVYYCQQRSTYPFTFGQGTKLEIK	nM	0.144

**Q:** Using the record for hu23.211 (antibody, V domains shown, humanized c23 by yeast display) VH: EVQLVQSGAEVKKPGASVKVSCKASGYTLKDTFLHWVRQAPGQRLEWMGRIDPANGNIKYDPKFQGRVTITADTSSNTAYMELSSLRSEDTAVYYCANSPYYYGSGYRIFDVWGQGTLVTVSS VL: EIVLTQSPATLSLSPGERATLSCSAFSSVNYMHWYQQKPGQAPRLLIYTTSNLASGIPARFSGSGSGTDYTLTISSLEPEDFAVYYCQQRSTYPFTFGQGTKLEIK , report its ATPase inhibition IC50 on SK-MEL-28 cells.
**A:** 0.386

**Q:** Could you do the same for hu23.H2L2 (antibody, V domains shown, humanized c23) VH: QVQLVQSGAEVKKPGASVKVSCKASGYNLKDTFLHWVRQAPGQGLEWMGRIDPANGNIKYDPKFQGRVTITADTSASTAYMELSSLRSEDTAVYYCANSPYYYGSGYRIFDVWGQGTTVTVSS VL: EIVLTQSPATLSLSPGERATLSCSAFSSVNYMHWYQQKPGQAPRLLIYTTSNLASGIPARFSGSGSGTDYTLTISSLEPEDFAVYYCQQRSTYPFTFGQGTKLEIK , please?
**A:** 0.767

**Q:** Next binder: hu23.201 (antibody, V domains shown, humanized c23 by yeast display) VH: QVQLVQSGAEVKKPGASVKVSCKASGYTLKDTFLHWVRQAPGQRLEWMGRIDPANGNIKYDPKFQGRVTLTADTSSNTAYMELSSLRSEDTAVYYCANSPYYYGSGYRIFDVWGQGTLVTVSS VL: EIVLTQSPATLSLSPGERATLSCSAFSSVNYMHWYQQKPGQSPRLLIYTTSNLASGIPARFSGSGSGTDYTLTISSLEPEDFAVYYCQQRSTYPFTFGQGTKLEIK
**A:** 0.264
